The entries below come with measured optical density values attached.
Biological target: T1, mouse ACVR2A (mouse, UniProt P27038 20-135, limits assumed); further: test concentration or dose not given here
T1 construct: coated antigen of the initial ELISA
T1 sequence (P27038 20-135 limits assumed): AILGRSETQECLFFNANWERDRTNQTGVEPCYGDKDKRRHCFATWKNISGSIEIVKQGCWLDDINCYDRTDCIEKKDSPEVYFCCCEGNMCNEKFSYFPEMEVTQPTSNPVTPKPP
Assay: ELISA
Form entry: value (OD) — number only.

Consider the following illustrative entries.
367_G01 (antibody, V domains shown, Group III) VH: EVQLLESGGGLVQPGGSLRLSCAASGFTFDSYGMNWVRQAPGKGLEWVASINYNSGYTGYADSVKGRFTISRDNSKNTLYLQMNSLRAEDTAVYYCARGANWHDTHLDYWGQGTLVTVSS VL: DIQMTQSPSSLSASVGDRVTITCRASQSISSYLNWYQQKPGKAPKLVIYAATSRASGVPSRFSGSGSGTDFTLTISSLQPEDFATYYCQQSYDLPLTFGGGTKVEIK	1.94
371_B12 (antibody, V domains shown, Group III) VH: EVQLLESGGGLVQPGGSLRLSCAASGFTFSDYSMNWVRQAPGKGLEWVAGINYNSGYTSYADSVKGRFTISRDNSKNTLYLQMNSLRAEDTAVYYCARGANWHDTALDYWGQGTLVTVSS VL: DIQMTQSPSSLSASVGDRVTITCRASQSIVTYLNWYQQKPGKAPKLVIYAATSRHSGVPSRFSGSGSGTDFTLTISSLQPEDFATYYCQQSYNNPLTFGGGTKVEIK	2.4

Query optical density for 373_B07 (antibody, V domains shown, Group III) VH: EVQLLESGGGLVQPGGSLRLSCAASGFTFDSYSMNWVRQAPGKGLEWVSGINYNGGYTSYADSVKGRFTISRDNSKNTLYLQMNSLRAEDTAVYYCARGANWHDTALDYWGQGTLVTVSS VL: DIQMTQSPSSLSASVGDRVTITCRASQSILTYVNWYQQKPGKAPKLVIYAATSRASGVPSRFSGSGSGTDFTLTISSLQPEDFATYYCQQSYELPLTFGGGTKVEIK
3.61
